// provenance: the MegaScale stability set (Tsuboyama et al. 2023)

B1: 2M8U (parent)
chain: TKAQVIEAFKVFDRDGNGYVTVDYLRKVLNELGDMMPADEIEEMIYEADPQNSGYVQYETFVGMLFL

Variants of: B1
Test: folding stability dG (cDNA display proteolysis); higher = more stable
Settings: PBS, room temperature
Attribute measured: folding stability dG (kcal/mol)
Respond numerically; units are kcal/mol and should not be typed.

- Variant id: "D34L"
  folding stability dG, kcal/mol: 4.44
- Variant id: "M36C"
  folding stability dG, kcal/mol: 3.44
- Variant id: "L32C"
  folding stability dG, kcal/mol: 2.76
- Variant id: "F12E"
  folding stability dG, kcal/mol: 3.15
- Variant id: "G63W"
  folding stability dG, kcal/mol: 3.31

Lookup: Entry E43L : reported folding stability dG = ?
Found: 3.73

Lookup: Can you share its folding stability dG? I mean this variant: L29Y
Found: 2.22

Lookup: Give its folding stability dG value. Item: V62D
Found: 1.28

Lookup: Fill in the blank: the reported folding stability dG of I45K is ____.
Found: 2.41

Lookup: Field request: folding stability dG | item: V28H
Found: 2.17

Lookup: Using the record for G18F , report its folding stability dG.
Found: 2.65
